Target: FSHR (Homo sapiens)
Sequence (P23945 18-695): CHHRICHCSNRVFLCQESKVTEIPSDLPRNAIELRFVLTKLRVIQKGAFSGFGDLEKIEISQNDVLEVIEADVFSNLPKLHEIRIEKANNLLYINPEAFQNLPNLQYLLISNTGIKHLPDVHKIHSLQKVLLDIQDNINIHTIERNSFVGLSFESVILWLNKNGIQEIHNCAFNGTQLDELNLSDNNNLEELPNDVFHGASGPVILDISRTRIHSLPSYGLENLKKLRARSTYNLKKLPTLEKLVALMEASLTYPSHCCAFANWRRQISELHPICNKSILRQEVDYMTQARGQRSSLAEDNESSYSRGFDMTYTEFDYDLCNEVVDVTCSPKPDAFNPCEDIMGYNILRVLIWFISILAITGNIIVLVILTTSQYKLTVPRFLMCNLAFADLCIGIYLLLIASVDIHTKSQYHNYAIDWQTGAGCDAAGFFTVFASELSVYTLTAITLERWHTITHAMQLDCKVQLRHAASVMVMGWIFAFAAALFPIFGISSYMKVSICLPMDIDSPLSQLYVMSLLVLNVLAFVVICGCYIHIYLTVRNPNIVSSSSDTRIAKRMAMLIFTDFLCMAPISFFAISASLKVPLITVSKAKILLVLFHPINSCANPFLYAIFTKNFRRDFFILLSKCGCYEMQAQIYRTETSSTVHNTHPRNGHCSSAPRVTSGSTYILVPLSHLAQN
Test: EC50 of Cyclic AMP Production in CHO FSHR Cells+EC20 FSH (Assay A)
Details: cAMP HTRF
MEASUREMENT KIND: EC50

Some compounds with recorded EC50:
[
  {
    "STRUCTURE SMILES": "Cc1ccccc1N1CCN(c2cc(Cl)c(C(=O)NCCCc3nnnn3C)cc2NC(=O)c2coc(C3CC3)n2)CC1",
    "EC50": "100 to 1000 nM"
  },
  {
    "STRUCTURE SMILES": "Cc1ccc(C)c(N2CCN(c3cc(Cl)c(C(=O)NCCCN4CCCC4=O)cc3NC(=O)c3coc(C4CC4)n3)CC2)c1",
    "EC50": "100 to 1000 nM"
  },
  {
    "STRUCTURE SMILES": "Cc1ccc(F)cc1N1CCN(c2cc(Cl)c(C(=O)NCCCN3CCCC3=O)cc2NC(=O)c2coc(C3CC3)n2)CC1",
    "EC50": "100 to 1000 nM"
  },
  {
    "STRUCTURE SMILES": "COc1cc(N2CCN(c3ccccc3C)CC2)c(NC(=O)c2coc(C3CC3)n2)cc1C(=O)NCCCN1CCCC1=O",
    "EC50": "< 100 nM"
  },
  {
    "STRUCTURE SMILES": "Cc1ccc(C(=O)Nc2cc(C(=O)NCCCN3CCOC3=O)c(Cl)cc2N2CCN(c3ccccc3C)CC2)o1",
    "EC50": "100 to 1000 nM"
  }
]

Can you share its EC50? I mean this compound: Cc1ccccc1N1CCN(c2c(NC(=O)c3coc(C4CC4)n3)cc(C(=O)NCCCN3CCCC3=O)cc2C(F)(F)F)CC1
1000 to 5000 nM

Field entry: Cc1ccccc1N1CCN(c2cc3c(cc2NC(=O)c2coc(C4CC4)n2)C(=O)N(CCCN2CCOC2=O)CC3)CC1
< 100 nM

Then this compound: Cc1ccccc1N1CCN(c2cc(C3CC3)c(C(=O)NCCCN3CCCC3=O)cc2NC(=O)c2coc(C3CC3)n2)CC1
100 to 1000 nM

====

Tested on: Rat Granulosa
Test: Rat Granulosa EC50 FSH (Assay B)
Assay type: cell-based
Settings: rat granulosa cells
pEC50: −log10 of the molar value.
MEASUREMENT KIND: pEC50

Examples with answers:
[
  {
    "MOLECULE": "Cc1ccccc1N1CCN(c2cc(Cl)c(C(=O)NCCCc3nnnn3C)cc2NC(=O)c2coc(C3CC3)n2)CC1",
    "pEC50": "6.00 to 7.00"
  },
  {
    "MOLECULE": "Cc1ccccc1N1CCN(c2cc(Cl)c(C(=O)NCCCN3CCCC3=O)cc2NC(=O)c2coc(C3CC3)n2)CC1",
    "pEC50": "6.00 to 7.00"
  }
]

Sample Cc1ccccc1N1CCN(c2cc(Cl)c(C(=O)NCCCc3nnn(C)n3)cc2NC(=O)c2coc(C3CC3)n2)CC1 — what was its pEC50?
5.30 to 6.00

Next entry: Cc1ccccc1N1CCN(c2cc(F)c(C(=O)N[C@@H]3CCC[C@H](C(=O)OC(C)(C)C)C3)cc2NC(=O)c2coc(C3CC3)n2)CC1
> 7.00

Now consider CCc1cc(N2CCN(c3ccccc3C)CC2)c(NC(=O)c2coc(C3CC3)n2)cc1C(=O)NCCCN1CCCC1=O and answer again.
6.00 to 7.00

Try the molecule COc1cc(N2CCN(c3ccccc3C)CC2)c(NC(=O)c2coc(C3CC3)n2)cc1C(=O)NCCCN1CCCC1=O
5.30 to 6.00

Entry Cc1ccccc1N1CCN(c2cc3c(cc2NC(=O)c2coc(C4CC4)n2)C(=O)N(C2CCC[C@H](O)[C@@H]2O)CC3)CC1 (stereo partly shown) please
5.30 to 6.00
